Test system: U2OS
Test: Multiplex assay against U2OS
Assay type: toxicity, cell-based
Settings: human, 48 h, 10 µM, compound concentration 10 uM, replicate 1
Endpoint: Population Membrane Permeable-Phenotype (%)
Record the result as number plus unit.

Please review the entries below; each comes with its answer.
{"Compound": "CCCSc1nc(N[C@@H]2C[C@H]2c2ccc(F)c(F)c2)c2nnn([C@@H]3C[C@H](OCCO)[C@@H](O)[C@H]3O)c2n1 [TICAGRELOR]", "Meas Value": "60%"}
{"Compound": "CC(C)(C)NC[C@H](O)COc1nsnc1N1CCOCC1 [TIMOLOL]", "Meas Value": "1%"}
{"Compound": "Cc1c[nH]c2nccc(Oc3c(F)cc(Nc4cc(Cl)nc(N)n4)cc3F)c12 [BAY-549]", "Meas Value": "17%"}

Next item in the queue.
So what's the measured Population Membrane Permeable-Phenotype (%) for this one? C[C@]12CC[C@@H]3c4ccc(O)cc4CC[C@H]3[C@@H]1CC[C@@H]2O [ESTRADIOL]
2%
